- test.method.notes: Blood-brain barrier penetration by the method of Oldendorf (radioactively marked active material, A. carotis injection, brain radioactivity after 15 seconds)
- condition.parameters: without addition of a compound of the general formula; A. carotis; 15 seconds; + dissolved in inger albumin
property: percentage proportion of active material which has passed the blood-brain barrier, without (%)
Express the result in % but write the number alone.

Measured percentage proportion of active material which has passed the blood-brain barrier, without of COc1cccc2c1C(=O)c1c(O)c3c(c(O)c1C2=O)C[C@@](O)(C(C)=O)C[C@@H]3O[C@H]1C[C@H](N)[C@H](O)[C@H](C)O1 [daunomycin] : 10.8

Measured percentage proportion of active material which has passed the blood-brain barrier, without of O=C1c2c(O)ccc(O)c2C(=O)c2c(NCCNCCO)ccc(NCCNCCO)c21 [mitoxandrone] : 1.8

Measured percentage proportion of active material which has passed the blood-brain barrier, without of O=c1[nH]cc(F)c(=O)[nH]1 [5-fluorouracil] : 3.7

Measured percentage proportion of active material which has passed the blood-brain barrier, without of O=P1(N(CCCl)CCCl)NCCCO1 (stereo not shown) [endoxan] : 11.4

---

Give measured percentage proportion of active material which has passed the blood-brain barrier, with C5 for each item. Keep answers brief.
- test.method.notes: Blood-brain barrier penetration by the method of Oldendorf (radioactively marked active material, A. carotis injection, brain radioactivity after 15 seconds)
- condition.parameters: with addition of glycerol 1-pentyl ether, about 0.3 Osmol/l; A. carotis; 15 seconds; + dissolved in inger albumin
Express the result in % but write the number alone.

Measured percentage proportion of active material which has passed the blood-brain barrier, with C5 of O=c1[nH]cc(F)c(=O)[nH]1 : 13.0

Measured percentage proportion of active material which has passed the blood-brain barrier, with C5 of CC[C@]1(O)C[C@@H]2CN(CCc3c([nH]c4ccccc34)[C@@](C(=O)OC)(c3cc4c(cc3OC)N(C)[C@H]3[C@@](O)(C(=O)OC)[C@H](OC(C)=O)[C@]5(CC)C=CCN6CC[C@]43[C@@H]65)C2)C1 : 44.3

Measured percentage proportion of active material which has passed the blood-brain barrier, with C5 of COc1cccc2c1C(=O)c1c(O)c3c(c(O)c1C2=O)C[C@@](O)(C(C)=O)C[C@@H]3O[C@H]1C[C@H](N)[C@H](O)[C@H](C)O1 : 76.8

Measured percentage proportion of active material which has passed the blood-brain barrier, with C5 of CN(Cc1cnc2nc(N)nc(N)c2n1)c1ccc(C(=O)N[C@@H](CCC(=O)O)C(=O)O)cc1 [methotrexate] : 26.2

Measured percentage proportion of active material which has passed the blood-brain barrier, with C5 of O=C1c2c(O)ccc(O)c2C(=O)c2c(NCCNCCO)ccc(NCCNCCO)c21 : 25.1

---

- test.method.notes: Blood-brain barrier penetration by the method of Oldendorf (radioactively marked active material, A. carotis injection, brain radioactivity after 15 seconds)
- condition.parameters: without addition of a compound of the general formula; A. carotis; 15 seconds; + dissolved in inger albumin
property: percentage proportion of active material which has passed the blood-brain barrier, without (%)
Express the result in % but write the number alone.

Measured percentage proportion of active material which has passed the blood-brain barrier, without of CN(Cc1cnc2nc(N)nc(N)c2n1)c1ccc(C(=O)N[C@@H](CCC(=O)O)C(=O)O)cc1 [methotrexate] : 4.7

Measured percentage proportion of active material which has passed the blood-brain barrier, without of CCCCCCCCCCCCCCCCCCOCC(COP(=O)([O-])OCC[N+](C)(C)C)OC (stereo not drawn) : 4.5

Measured percentage proportion of active material which has passed the blood-brain barrier, without of CC[C@]1(O)C[C@@H]2CN(CCc3c([nH]c4ccccc34)[C@@](C(=O)OC)(c3cc4c(cc3OC)N(C)[C@H]3[C@@](O)(C(=O)OC)[C@H](OC(C)=O)[C@]5(CC)C=CCN6CC[C@]43[C@@H]65)C2)C1 : 5.4
